# procedureSummary: Thermostability (Tm, Tonset, Tagg) by Nanotemper DSF
# Assay type: physicochemical
# Parameters: key: temperatures in °C
# condition: Replicate 2
experimentalEndpoint: Tonset
Field format: numeric only.

Exam item: I'd like to know its Tonset. The molecule in question is SDAB22110-1-1-B9-1: anti-Fel d1 VHH clone, SEQ ID NO: 50 (protein) VHH: DVQLVESGGGWVQPGGSLRLSCAASGFTFTSYALSWVRQAPGKGLEWVSLADARGTSTTYADSVKGRFTISKDNPRNTLYLLMNSLKPEDTAVYYCTKGFDGNWYPDYDYWGQGTQVTVSS
Marked response: 42.04

Exam item: // query: SDAB22110-1-1-E4: anti-Fel d1 VHH clone, SEQ ID NO: 51 (protein) VHH: QLQLVESGGGLVQPGGSLRLSCTASGFTFSTAGTSWYRQSPGKARKLVAELSRIGGIANYADSVKGRFTISRDNTRNTVYLQMNSLKPEDTAVYYCKVVTNRNYGFTYWGQGTQVTVSS
Marked response: 40.64

Exam item: // query: SDAB22110-3-2-H08: anti-Fel d1 VHH clone, SEQ ID NO: 53 (protein) VHH: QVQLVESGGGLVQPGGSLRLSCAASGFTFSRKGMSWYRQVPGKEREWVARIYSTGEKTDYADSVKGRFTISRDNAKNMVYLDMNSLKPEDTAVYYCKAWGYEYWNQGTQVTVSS
Marked response: 37.34

Values were extracted from patent US20240352105A1.
